- Tested on: 653999-131-R-J2-PDC complex spheroids, growth % test/control
- Assay Notes: Anticancer human tumor 653999-131-R-J2-PDC patient-derived lung adenocarcinoma cell line growth inhibition [AhR]
- Assay Context: second compound 3.16 µM; first compound 1 µM; hits give low values
viability, T/C by entry:
Answer in %, number only, no unit symbol.

Challenge: I have this molecule here, CC1(C)CCC(CN2CCN(c3ccc(C(=O)NS(=O)(=O)c4ccc(NCC5CCOCC5)c([N+](=O)[O-])c4)c(Oc4cnc5[nH]ccc5c4)c3)CC2)=C(c2ccc(Cl)cc2)C1 + Cc1ccccc1N=Nc1ccc(NC(=O)c2ccnn2C)c(C)c1 , and I need its recorded viability, T/C.
Response given: 90

Challenge: And COc1cc(C2c3cc4c(cc3C(OC3OC5COC(C)OC5C(O)C3O)C3COC(=O)C23)OCO4)cc(OC)c1O (stereo not drawn) + CC(CO)NC(=O)c1cc(-c2ccc(Cl)cc2)nn(-c2cnn(C)c2)c1=O ?
Response given: 44.1

Challenge: And CC1COCCN1c1cc(C2(S(C)(=N)=O)CC2)nc(-c2ccnc3[nH]ccc23)n1 (stereo not drawn) + Cc1cncc(-c2nc(NCCc3c[nH]c4ccccc34)c3ncn(C(C)C)c3n2)c1 ?
Response given: 99

###

viability, T/C by entry:
- Tested on: 653999-131-R-J2-PDC complex spheroids, growth % test/control
- Assay Notes: Anticancer human tumor 653999-131-R-J2-PDC cell line growth inhibition [AhR];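 note: spheroids exposed to agents for seven days; 100% = DMSO vehicle control viability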
- Assay Context: second compound 3.16 µM; first compound 1 µM; hits give low values

Below, each entry is followed by its recorded viability, T/C result.
Molecule	Reported
Nc1ccccc1NC(=O)c1ccc(CNC(=O)OCc2cccnc2)cc1 + CC(CO)NC(=O)c1cc(-c2ccc(Cl)cc2)nn(-c2cnn(C)c2)c1=O	70%
O=C(c1cc(Cc2n[nH]c(=O)c3ccccc23)ccc1F)N1CCN(C(=O)C2CC2)CC1 + Cc1cncc(-c2nc(NCCc3c[nH]c4ccccc34)c3ncn(C(C)C)c3n2)c1	114%
COc1ccc([C@@H](O)c2cc(-c3ncnc4cc(N5CCOCC5)ccc34)c(F)cc2Cl)nn1 + Cc1cncc(-c2nc(NCCc3c[nH]c4ccccc34)c3ncn(C(C)C)c3n2)c1	93%

Here is the next item to consider.
Challenge: I have this molecule here, COc1cccc2c1C(=O)c1c(O)c3c(c(O)c1C2=O)CC(O)(C(=O)CO)CC3OC1CC(N)C(O)C(C)O1 (centres undefined) + Cc1cncc(-c2nc(NCCc3c[nH]c4ccccc34)c3ncn(C(C)C)c3n2)c1 , and I need its recorded viability, T/C.
Response given: 4.87%

###

viability, T/C by entry:
- Test system: 653999-131-R-J2-PDC complex spheroids, growth % test/control
- Assay Notes: Anticancer human tumor 653999-131-R-J2-PDC cell line growth inhibition [AhR];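 note: spheroids exposed to agents for seven days; 100% = DMSO vehicle control viability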
- Assay Context: second compound 10 µM; first compound 0.316 µM; hits give low values
Answer in %, number only, no unit symbol.

Molecule	Reported
COc1ccc([C@@H](O)c2cc(-c3ncnc4cc(N5CCOCC5)ccc34)c(F)cc2Cl)nn1 + Cc1ccccc1N=Nc1ccc(NC(=O)c2ccnn2C)c(C)c1	95.1
CC1COCCN1c1cc(C2(S(C)(=N)=O)CC2)nc(-c2ccnc3[nH]ccc23)n1 (configuration not stated) + Cc1cncc(-c2nc(NCCc3c[nH]c4ccccc34)c3ncn(C(C)C)c3n2)c1	64.5
CC1COCCN1c1cc(-c2ccnn2C)c2ccnc(-c3ccn[nH]3)c2n1 (configuration not stated) + CC(CO)NC(=O)c1cc(-c2ccc(Cl)cc2)nn(-c2cnn(C)c2)c1=O	30.7
Nc1ncn(C2CC(O)C(CO)O2)c(=O)n1 (configuration not stated) + CC(CO)NC(=O)c1cc(-c2ccc(Cl)cc2)nn(-c2cnn(C)c2)c1=O	99
Nc1ccn(C2OC(CO)C(O)C2(F)F)c(=O)n1 (configuration not stated) + CC(CO)NC(=O)c1cc(-c2ccc(Cl)cc2)nn(-c2cnn(C)c2)c1=O	64.4

Challenge: I have this molecule here, O=C(C=Cc1cccc(S(=O)(=O)Nc2ccccc2)c1)NO + Cc1cncc(-c2nc(NCCc3c[nH]c4ccccc34)c3ncn(C(C)C)c3n2)c1 , and I need its recorded viability, T/C.
Response given: 50.4

Challenge: And CC1COCCN1c1cc(-c2ccnn2C)c2ccnc(-c3ccn[nH]3)c2n1 (configuration not stated) + Cc1cncc(-c2nc(NCCc3c[nH]c4ccccc34)c3ncn(C(C)C)c3n2)c1 ?
Response given: 25.7
